Assay: Cmax in mouse at 10 mg/kg, po
Type: ADME, organism-based
Details: in vivo

structure as smiles: Cc1c(C(=O)N[C@@H](CCC2CC2)C(=O)Nc2ccc(C#N)cc2)[nH]c2c1C(=O)CC(C)(C)C2
Cmax: 42.4 µM

----------
Target: Histone-lysine N-methyltransferase EHMT1 (Homo sapiens, UniProt Q9H9B1)
Sequence (Q9H9B1 whole entry): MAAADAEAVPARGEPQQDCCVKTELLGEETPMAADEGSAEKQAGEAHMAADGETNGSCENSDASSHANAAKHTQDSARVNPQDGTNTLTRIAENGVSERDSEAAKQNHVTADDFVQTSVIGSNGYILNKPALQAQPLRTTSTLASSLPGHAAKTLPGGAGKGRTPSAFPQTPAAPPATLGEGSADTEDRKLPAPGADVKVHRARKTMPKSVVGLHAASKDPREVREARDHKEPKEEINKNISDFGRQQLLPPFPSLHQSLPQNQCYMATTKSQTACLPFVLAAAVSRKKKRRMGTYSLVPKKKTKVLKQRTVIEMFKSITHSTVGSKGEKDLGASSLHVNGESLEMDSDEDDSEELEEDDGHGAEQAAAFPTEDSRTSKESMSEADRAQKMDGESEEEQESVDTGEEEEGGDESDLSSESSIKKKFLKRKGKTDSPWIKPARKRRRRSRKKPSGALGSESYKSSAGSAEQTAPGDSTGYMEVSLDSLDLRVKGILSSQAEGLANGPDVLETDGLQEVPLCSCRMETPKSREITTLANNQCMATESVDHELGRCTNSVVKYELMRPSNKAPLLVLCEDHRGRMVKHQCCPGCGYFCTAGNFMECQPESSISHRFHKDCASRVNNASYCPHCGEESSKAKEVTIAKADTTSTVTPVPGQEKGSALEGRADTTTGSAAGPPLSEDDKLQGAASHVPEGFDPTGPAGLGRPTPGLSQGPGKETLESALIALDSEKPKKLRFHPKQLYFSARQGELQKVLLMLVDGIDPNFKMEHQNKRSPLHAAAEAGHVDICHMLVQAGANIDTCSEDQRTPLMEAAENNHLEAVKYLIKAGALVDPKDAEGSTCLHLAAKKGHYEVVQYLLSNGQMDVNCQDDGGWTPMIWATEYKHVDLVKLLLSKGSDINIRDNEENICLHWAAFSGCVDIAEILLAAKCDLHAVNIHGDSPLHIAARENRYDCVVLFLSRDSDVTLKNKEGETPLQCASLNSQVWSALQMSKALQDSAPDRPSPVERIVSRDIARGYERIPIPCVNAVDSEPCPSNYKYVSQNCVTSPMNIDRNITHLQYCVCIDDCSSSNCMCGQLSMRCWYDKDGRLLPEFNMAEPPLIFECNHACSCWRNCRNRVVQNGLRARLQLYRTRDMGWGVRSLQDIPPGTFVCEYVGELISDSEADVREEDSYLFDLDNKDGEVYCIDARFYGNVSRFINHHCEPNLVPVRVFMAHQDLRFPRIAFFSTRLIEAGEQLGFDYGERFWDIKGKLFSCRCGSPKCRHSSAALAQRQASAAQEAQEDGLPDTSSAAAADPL

structure as smiles: COc1cc2c(NC3CCN(C)CC3)nc(N3CCCN(C)CC3)nc2cc1OCCOCCN(C)C
Ki: 15 nM

----------
Assay: Microsomal stability in mouse liver microsomes assessed as half life incubated upto 60 mins by LC-MS/MS analysis
Assay type: ADME, Microsome
half-life listing for selected compounds.
reported endpoint: half-life (min)

structure as smiles: COc1cc2c(NC3CCN(C)CC3)cc(-c3ccc(C)o3)nc2cc1OCCCN1CCCC1
value unit: min
measured number: 6
//
structure as smiles: COc1cc2c(NC3CCN(C4CC4)CC3)cc(-c3ccc(C)o3)nc2cc1OCCCN1CCCC1
value unit: min
measured number: 36
